meta.source: PubChem BioAssay AID1963446

Parameter pIC50: see the listing below.
- Test system: 993429-296-R-J1-PDC complex spheroid growth, percent test/control;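 further: spheroids exposed to compounds for seven days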
- method notes: Anticancer human tumor 993429-296-R-J1-PDC patient-derived uterine sarcoma cell line growth inhibition [Asc]
- assay conditions: curve of first compound; second compound 1 µM
pIC50: −log10 of the molar value.

Solved entries:
1. C#Cc1c(F)ccc2cc(O)cc(-c3ncc4c(N5CC6CCC(C5)N6)nc(OCC56CCCN5CC(F)C6)nc4c3F)c12 (stereo not drawn) + CNC(C)C(=O)NC1CN(S(=O)(=O)c2cccc(S(=O)(=O)N3CCC4CCC(C(=O)NC(c5ccccc5)c5ccccc5)N4C(=O)C(NC(=O)C(C)NC)C3)c2)CCC2CCC(C(=O)NC(c3ccccc3)c3ccccc3)N2C1=O	> 7.50
2. Cc1nc(N2CCC3(CC2)COC(C)C3N)c(CO)nc1Sc1ccnc(N)c1Cl (stereo not drawn) + Cc1c(S(C)(=O)=O)c(-c2cc(F)cc(N3CCN(c4ccc(NS(=O)(=O)c5ccc(NC(CCN6CCC(C(=O)OCCCP(=O)(O)O)CC6)CSc6ccccc6)c(S(=O)(=O)C(F)(F)F)c5)cc4)CC3)c2)c(-c2ccc(Cl)cc2)n1C(C)C	7.84

Next:
Lookup result for CNC(C)C(=O)NC1CN(S(=O)(=O)c2cccc(S(=O)(=O)N3CCC4CCC(C(=O)NC(c5ccccc5)c5ccccc5)N4C(=O)C(NC(=O)C(C)NC)C3)c2)CCC2CCC(C(=O)NC(c3ccccc3)c3ccccc3)N2C1=O (stereo not drawn) + Cc1c(S(C)(=O)=O)c(-c2cc(F)cc(N3CCN(c4ccc(NS(=O)(=O)c5ccc(NC(CCN6CCC(C(=O)OCCCP(=O)(O)O)CC6)CSc6ccccc6)c(S(=O)(=O)C(F)(F)F)c5)cc4)CC3)c2)c(-c2ccc(Cl)cc2)n1C(C)C ; measured pIC50: > 8.50
